Cited source: ChEMBL document CHEMBL1140792

Protein target, amino acids: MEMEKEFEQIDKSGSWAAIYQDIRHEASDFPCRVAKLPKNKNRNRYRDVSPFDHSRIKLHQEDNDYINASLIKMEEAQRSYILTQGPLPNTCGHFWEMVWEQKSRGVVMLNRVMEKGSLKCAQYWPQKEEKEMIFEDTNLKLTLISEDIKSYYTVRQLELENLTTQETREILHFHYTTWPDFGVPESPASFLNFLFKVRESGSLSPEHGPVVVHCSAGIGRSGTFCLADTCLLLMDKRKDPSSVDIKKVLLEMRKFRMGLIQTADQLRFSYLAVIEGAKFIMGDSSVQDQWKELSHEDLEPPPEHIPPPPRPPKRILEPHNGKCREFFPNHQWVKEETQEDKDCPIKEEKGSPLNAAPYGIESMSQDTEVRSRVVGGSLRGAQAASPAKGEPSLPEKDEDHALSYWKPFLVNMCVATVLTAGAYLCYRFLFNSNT
VALUE TYPE: IC50 (nM)
Report the figure in nM without appending any unit label.

Request: Entry under review: Cc1cc(CC(NS(=O)(=O)c2cccc(F)c2)c2ncc(CCCOc3cccc(O)c3C(=O)O)[nH]2)ccc1C1CC(=O)NS1(=O)=O (centres undefined) . Reported IC50?
Response: 120

Request: Entry under review: O=C1CC(c2ccc(CC(NS(=O)(=O)c3cccc(C(F)(F)F)c3)C3=NC[C@@H](c4ccccc4)N3)cc2)S(=O)(=O)N1 (some centres undefined) . Reported IC50?
Response: 660

Request: Entry under review: COC(=O)c1c(O)cccc1OCCCC[C@@H]1CN=C(C(Cc2ccc(C3CC(=O)NS3(=O)=O)c(C)c2)NS(=O)(=O)c2cccc(F)c2)N1 (some centres undefined) . Reported IC50?
Response: 110

Request: Entry under review: O=C1CC(c2ccc(CC(NS(=O)(=O)c3cccc(F)c3)C3=NC[C@@H](CCc4ccccc4)N3)cc2)S(=O)(=O)N1 (some centres undefined) . Reported IC50?
Response: 130
